Could you please report measured SAH counterscreen inhibition: Hill slope for the items listed next?
assay: SAH counterscreen inhibition (counterscreen of the MTase-Glo luminescence readout); conditions: fit of concentration-response curve
In your answer, state the number alone without any accompanying words.

Bench note: what SAH counterscreen inhibition: Hill slope did Cc1nccc(C(=O)NCC2CCC3(CN(C(=O)c4cc(C)c5[nH]ncc5c4)C3)O2)c1C (centres unmarked) [RU-0834173] show?
-9.25

Bench note: what SAH counterscreen inhibition: Hill slope did Cc1cc(C(=O)NCc2ccc(C(=O)NC(C)c3ccccc3C)nc2)ccc1O (centres unmarked) [RU-0834146] show?
-44.2

Bench note: what SAH counterscreen inhibition: Hill slope did O=C(Cn1cccc(-c2nc(-c3ccccc3)no2)c1=O)Nc1ccc(F)cc1F [RU-0833868] show?
19.2

Bench note: what SAH counterscreen inhibition: Hill slope did Cc1cnc(C(=O)NCc2ccc(CNC(=O)c3ccc(O)c(C)c3)cc2)c(C)c1 [RU-0834201] show?
-59.4

Bench note: what SAH counterscreen inhibition: Hill slope did Nc1ncnc2c1ncn2C1OC(CC(N)CCC(N)C(=O)O)C(O)C1O (centres unmarked) [RU-0425548] show?
7.74

Bench note: what SAH counterscreen inhibition: Hill slope did Cc1nc(C)c(C(=O)NCc2ccc(CNC(=O)c3ccc(O)c(F)c3)cc2)nc1C [RU-0834080] show?
-2.71

Bench note: what SAH counterscreen inhibition: Hill slope did Cc1cccc(C(=O)NCC2CCC3(CN(C(=O)c4cc(C)c5[nH]ncc5c4)C3)O2)c1F (centres unmarked) [RU-0834174] show?
-17

Bench note: what SAH counterscreen inhibition: Hill slope did Cc1cc(C)c(C(=O)NCc2ccc(CNC(=O)c3ccc(O)c(C)c3)cc2)cn1 [RU-0834181] show?
63.6
